Assay: solubility in buffer solution
Assay type: physicochemical
Conditions: pH 7.5, aqueous buffer; buffer solution, pH = 7,5; 22° C.; read-out: Solubility
parameter measured: solubility (µg/mL)
// note: answer is a bare numeric in µg/mL

Which solubility is listed for COC1C=COC2(C)Oc3c(C)c(O)c4c(O)c(c(C=NN5CCN(C)CC5)c(O)c4c3C2=O)NC(=O)C(C)=CC=CC(C)C(O)C(C)C(O)C(C)C(OC(C)=O)C1C (stereo not shown) [reference compound] ?
2850

###

Experiment: in vivo
Conditions: mouse, ip, acute toxicity, mice
Recorded LD50 values for a group of compounds are listed next.
// note: answer is a bare numeric in mg/kg

The cases that follow already have their LD50 on record.
{"compound": "CON=Cc1c2c(O)c3c(O)c(C)c4c(c3c1O)C(=O)C(C)(OC=CC(OC)C(C)C(O)C(C)C(O)C(C)C(O)C(C)C=CC=C(C)C(=O)N2)O4 (centres unmarked)", "LD50, mg/kg": 560}
{"compound": "COC1C=COC2(C)Oc3c(C)c(O)c4c(O)c(c(C=O)c(O)c4c3C2=O)NC(=O)C(C)=CC=CC(C)C(O)C(C)C(O)C(C)C(O)C1C (centres unmarked)", "LD50, mg/kg": 550}
{"compound": "COC1C=COC2(C)Oc3c(C)c(O)c4c(O)c(c(C=NN5CCN(C)CC5)c(O)c4c3C2=O)NC(=O)C(C)=CC=CC(C)C(O)C(C)C(O)C(C)C(O)C1C (centres unmarked)", "LD50, mg/kg": 850}

Which LD50 is listed for COC1C=COC2(C)Oc3c(C)c(O)c4c(O)c(c(C=O)c(O)c4c3C2=O)NC(=O)C(C)=CC=CC(C)C(O)C(C)C(O)C(C)C(OC(C)=O)C1C (centres unmarked) [3-formyl-rifamycin SV, reference compound] ?
300

Which LD50 is listed for COC1C=COC2(C)Oc3c(C)c(O)c4c(O)c(c(C=NN5CCN(C)CC5)c(O)c4c3C2=O)NC(=O)C(C)=CC=CC(C)C(O)C(C)C(O)C(C)C(OC(C)=O)C1C (centres unmarked) [reference compound] ?
460
